B1: NETO1 (parent)
chain: KTSLLDQLTNTSGTVIGVTSCIVI

- Variants of: B1
- procedure.details: protein stability index of a GFP-peptide fusion (GPS, HEK-293T) (PSI 1-6); higher = more stable;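 note: lentivirally expressed fusions sorted by FACS into six bins by GFP to DsRed ratio, PSI derived from sequencing read proportions per bin multiplied by bin number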
- condition.parameters: c terminus: a fixed tail appended
readout.kind: protein stability index

[[record]]
alteration = "D6A"
readout_kind = "protein stability index"
recorded_value = 3.62

[[record]]
alteration = "I22E"
readout_kind = "protein stability index"
recorded_value = 2.32

[[record]]
alteration = "T2Q"
readout_kind = "protein stability index"
recorded_value = 2.94

[[record]]
alteration = "V18P"
readout_kind = "protein stability index"
recorded_value = 2.84

[[record]]
alteration = "G17L"
readout_kind = "protein stability index"
recorded_value = 3.83

[[record]]
alteration = "V18F"
readout_kind = "protein stability index"
recorded_value = 2.48

[[record]]
alteration = "V15P"
readout_kind = "protein stability index"
recorded_value = 3.31

[[record]]
alteration = "V18L"
readout_kind = "protein stability index"
recorded_value = 3.12

[[record]]
alteration = "T9C"
readout_kind = "protein stability index"
recorded_value = 3.21

[[record]]
alteration = "T11L"
readout_kind = "protein stability index"
recorded_value = 1.92

[[record]]
alteration = "L4C"
readout_kind = "protein stability index"
recorded_value = 2.08

[[record]]
alteration = "Q7A"
readout_kind = "protein stability index"
recorded_value = 2.92

[[record]]
alteration = "V18K"
readout_kind = "protein stability index"
recorded_value = 3.8

[[record]]
alteration = "T19A"
readout_kind = "protein stability index"
recorded_value = 3.16

[[record]]
alteration = "V15S"
readout_kind = "protein stability index"
recorded_value = 2.96

[[record]]
alteration = "G17P"
readout_kind = "protein stability index"
recorded_value = 3.45

[[record]]
alteration = "T19S"
readout_kind = "protein stability index"
recorded_value = 3.29

[[record]]
alteration = "V15M"
readout_kind = "protein stability index"
recorded_value = 2.87

[[record]]
alteration = "S20D"
readout_kind = "protein stability index"
recorded_value = 2.83

[[record]]
alteration = "Q7V"
readout_kind = "protein stability index"
recorded_value = 3.45

[[record]]
alteration = "T19F"
readout_kind = "protein stability index"
recorded_value = 2.52

[[record]]
alteration = "T14I"
readout_kind = "protein stability index"
recorded_value = 2.98

[[record]]
alteration = "T9Y"
readout_kind = "protein stability index"
recorded_value = 3.55

[[record]]
alteration = "T19L"
readout_kind = "protein stability index"
recorded_value = 3.78

[[record]]
alteration = "K1H"
readout_kind = "protein stability index"
recorded_value = 2.11

[[record]]
alteration = "T2D"
readout_kind = "protein stability index"
recorded_value = 3.94

[[record]]
alteration = "I16K"
readout_kind = "protein stability index"
recorded_value = 3.1

[[record]]
alteration = "C21A"
readout_kind = "protein stability index"
recorded_value = 2.7

[[record]]
alteration = "T11H"
readout_kind = "protein stability index"
recorded_value = 3.21

[[record]]
alteration = "N10D"
readout_kind = "protein stability index"
recorded_value = 2.47

[[record]]
alteration = "Q7F"
readout_kind = "protein stability index"
recorded_value = 2.62

[[record]]
alteration = "T19H"
readout_kind = "protein stability index"
recorded_value = 4.49

[[record]]
alteration = "T2L"
readout_kind = "protein stability index"
recorded_value = 2.58

[[record]]
alteration = "S20V"
readout_kind = "protein stability index"
recorded_value = 2.44

[[record]]
alteration = "T14W"
readout_kind = "protein stability index"
recorded_value = 2.37

[[record]]
alteration = "T11A"
readout_kind = "protein stability index"
recorded_value = 3.75

[[record]]
alteration = "L8T"
readout_kind = "protein stability index"
recorded_value = 3.48

[[record]]
alteration = "G13R"
readout_kind = "protein stability index"
recorded_value = 3.34

[[record]]
alteration = "S3N"
readout_kind = "protein stability index"
recorded_value = 2.57

[[record]]
alteration = "L4T"
readout_kind = "protein stability index"
recorded_value = 3.56

[[record]]
alteration = "D6E"
readout_kind = "protein stability index"
recorded_value = 3.74

[[record]]
alteration = "G17K"
readout_kind = "protein stability index"
recorded_value = 2.64

[[record]]
alteration = "Q7N"
readout_kind = "protein stability index"
recorded_value = 3.77

[[record]]
alteration = "L8S"
readout_kind = "protein stability index"
recorded_value = 3.3

[[record]]
alteration = "C21S"
readout_kind = "protein stability index"
recorded_value = 3.06

[[record]]
alteration = "G13L"
readout_kind = "protein stability index"
recorded_value = 2.42

[[record]]
alteration = "V18Q"
readout_kind = "protein stability index"
recorded_value = 2.66

[[record]]
alteration = "V15K"
readout_kind = "protein stability index"
recorded_value = 3.5

[[record]]
alteration = "I16W"
readout_kind = "protein stability index"
recorded_value = 2.03

[[record]]
alteration = "T2V"
readout_kind = "protein stability index"
recorded_value = 2.68

[[record]]
alteration = "S12H"
readout_kind = "protein stability index"
recorded_value = 2.69

[[record]]
alteration = "D6F"
readout_kind = "protein stability index"
recorded_value = 2.58

[[record]]
alteration = "L8C"
readout_kind = "protein stability index"
recorded_value = 3.29

[[record]]
alteration = "S20I"
readout_kind = "protein stability index"
recorded_value = 3.08

[[record]]
alteration = "L4G"
readout_kind = "protein stability index"
recorded_value = 4.07

[[record]]
alteration = "I24Q"
readout_kind = "protein stability index"
recorded_value = 1.62

[[record]]
alteration = "I22P"
readout_kind = "protein stability index"
recorded_value = 2.37

[[record]]
alteration = "I22W"
readout_kind = "protein stability index"
recorded_value = 3.04

[[record]]
alteration = "Q7C"
readout_kind = "protein stability index"
recorded_value = 2.94

[[record]]
alteration = "L5M"
readout_kind = "protein stability index"
recorded_value = 3.86

[[record]]
alteration = "S12E"
readout_kind = "protein stability index"
recorded_value = 2.87

[[record]]
alteration = "T19D"
readout_kind = "protein stability index"
recorded_value = 1.59

[[record]]
alteration = "V15N"
readout_kind = "protein stability index"
recorded_value = 2.74

[[record]]
alteration = "L5E"
readout_kind = "protein stability index"
recorded_value = 2.98

[[record]]
alteration = "N10Y"
readout_kind = "protein stability index"
recorded_value = 2.62

[[record]]
alteration = "L5Y"
readout_kind = "protein stability index"
recorded_value = 2.3

[[record]]
alteration = "I22L"
readout_kind = "protein stability index"
recorded_value = 2.08

[[record]]
alteration = "L4K"
readout_kind = "protein stability index"
recorded_value = 2.57

[[record]]
alteration = "I24K"
readout_kind = "protein stability index"
recorded_value = 2.04

[[record]]
alteration = "T2E"
readout_kind = "protein stability index"
recorded_value = 2.12

[[record]]
alteration = "Q7H"
readout_kind = "protein stability index"
recorded_value = 4.35

[[record]]
alteration = "T2A"
readout_kind = "protein stability index"
recorded_value = 3.1

[[record]]
alteration = "T9G"
readout_kind = "protein stability index"
recorded_value = 2.29

[[record]]
alteration = "I16M"
readout_kind = "protein stability index"
recorded_value = 2.62

[[record]]
alteration = "Q7W"
readout_kind = "protein stability index"
recorded_value = 2.18

[[record]]
alteration = "L8V"
readout_kind = "protein stability index"
recorded_value = 3.52

[[record]]
alteration = "S20Q"
readout_kind = "protein stability index"
recorded_value = 2.53

[[record]]
alteration = "I24H"
readout_kind = "protein stability index"
recorded_value = 1.99

[[record]]
alteration = "I16Y"
readout_kind = "protein stability index"
recorded_value = 2.12

[[record]]
alteration = "L8A"
readout_kind = "protein stability index"
recorded_value = 2.76

[[record]]
alteration = "V15C"
readout_kind = "protein stability index"
recorded_value = 2.06

[[record]]
alteration = "C21Y"
readout_kind = "protein stability index"
recorded_value = 2.72

[[record]]
alteration = "V23N"
readout_kind = "protein stability index"
recorded_value = 2.01

[[record]]
alteration = "S12L"
readout_kind = "protein stability index"
recorded_value = 2.43

[[record]]
alteration = "Q7I"
readout_kind = "protein stability index"
recorded_value = 2.08

[[record]]
alteration = "D6T"
readout_kind = "protein stability index"
recorded_value = 3.2

[[record]]
alteration = "G13F"
readout_kind = "protein stability index"
recorded_value = 3.7

[[record]]
alteration = "T14G"
readout_kind = "protein stability index"
recorded_value = 2.11

[[record]]
alteration = "D6H"
readout_kind = "protein stability index"
recorded_value = 3.23

[[record]]
alteration = "V23R"
readout_kind = "protein stability index"
recorded_value = 2.65

[[record]]
alteration = "V18E"
readout_kind = "protein stability index"
recorded_value = 2.2

